Test system: MS2 coat protein
Assay: apparent KD of MS2 coat protein; designed switch direction (-1 OFF switch, 1 ON switch): -1; higher = weaker reporter binding
Conditions: input ligand: microRNA oligo, concentration not stated

residues	apparent KD of MS2 coat protein
UAUUAGCAAGUAAGGUCCCACAUGAGGAUCACCCAUGUGCUCGUCUUAUAAGGUACUGUGACGAAAGUCACGGUACC [Sensor 3, v1 - 95] (Eterna round: R96, puzzle: Sensor v3, turn-off variant 1)	326 nM
ACAUGAGGAUCACCCAUGUCUGGCUGGUCUGCUCCGGCUGUUGAGGAUAUAGUCCGGUGUUCGCGCUAGAAGGUGAGGGCUGGA [Aenatbe mod 41] (Eterna round: R96, puzzle: Exclusion NG 3)	49.5 nM
CCGGUUGGCGCAGGAUAUACAUGAGGAUCACCCAUGUUCAUGAGGAUCACCCAUGAGUUUUUGUUGUAGAAGGGUGGCCCGGCC [A second MS2 with the first and last base exchanged (less A)] (Eterna round: R96, puzzle: Exclusion NG 2)	15 nM
AUGCUCCGUGUAGGAUAUCGCCGUACUAUUCGGCGAGAAGGACAUGAGGAUCACCCAUGUAUGUUAUUAUCACGUGUGGCGCGC [Design 48] (Eterna round: R96, puzzle: Exclusion NG 1)	14.5 nM

----------
Test system: MS2 coat protein
Assay: apparent KD of MS2 coat protein; higher = weaker reporter binding
Settings: Eterna round: R107; input ligand: theophylline 20 uM
Returns the class for an entry based on its apparent KD of MS2 coat protein. Class ranges: interval 1 = under 0.03 µM, interval 2 = from 0.03 µM up to 0.09 µM, interval 3 = 0.09 µM and over

residues	assigned_label
AGUAGACACGCGGCCGCCACUUGAGGAUCACCCAAGUGGUGUGUACUUGAAACAAGUGCACAAUCAAGGACCGGGCGUGUCUACA [Omei Tryp B SS D v4]	interval 1
GGACUAACCAGAAGGAGCGACACGCAGAAACUGCAAUUUCCUCCGCACGAGGAUCACCCGUGUCAGGUAGGUCGCUGGUUAGUCG	interval 2
UCGGGCAGAGCGGCCGCCACUGUUUGGCGUGCGGAUGAAGGAACAUGAGGAUCACCCAUGUUGAUUAGGACCGGGCUUGCGGAGA [kklmullin]	interval 1
CCUUUGUAGCGAAGGAGCGCGUGACUUAGCUCAUGUAAACAUGAGGAUCACCCAUGUGACACGCAGGUAGGUCGCGCUAUGAAGG [Arg B Ex t3]	interval 1
ACGACAUGAGGAUCACCCAUGUAAGGUGAUACCAGACGAAGUAAUGUCCCUUGGCAGCACAAGCAUAGUUGCGAUUAUUGUACGA [JR_SSTheophyA_Sub006]	interval 3
UUAUGCAGGUCGGCCGCCACUACACACAUGAGGAUCACCCAUGUAGUUACUGGGUGAAGUGGCAGUAGGACCGGGACCUGCAUAC [Brourdmod06]	interval 3
AGUAUCAGUGGAAGGAGCGUCGCGACUGCUACAUGAGGAUCACCCAUGUCGCCUUGAGCGCGACAGGUAGGUCGCCACGGUAGGC [SS-ArgB1]	interval 2
GUCAGUAGAACAGAUACCAGUCAAAGGCUGUGAUCUCAUAACAUGAGGAUCACCCAUGUUGACCCUUGGCAGCUGUGGGCGAGGG [#20 Exclusion-TheophyllineB]	interval 2
UCUAGGCUCGGAAACGAGCCUAGUACAGAAGGAGCGUGGAUUAACACAGGUAGGUCGCUGACAUGAGGAUCACCCAUGUAUUAUU [SSAA #3]	interval 2
ACGUAAUGCAGAAGGAGCGUCUAUGUGUUACAUGAGGAUCACCCAUGUGUUAUGUUAUGUGGACAGGUAGGUCGCUGAAGUACGA [JR_SSArginiB_Sub005]	interval 3
UCUCGGUCUUUCUUUCUCCGAGAAUAUGAUACCAGUUAGUUUUAUGGCCCUUGGCAGCAUAGAACAUGAGGAUCACCCAUGUGUU [SSThA NP+V+V2 #9 +-Same Structure]	interval 3
AUACAUGAGGAUCACCCAUGUUACACUGAAGGAGCGACAUGUUUGUCAGGUAGGUCGCAGUGAAGUUUAAUAAUUCUUUGAUCUU [#06 Same State - Arginine A]	interval 2
AACCGAGGCUAUCCUCUCCGACUAUGUGAUACCAGAAUAAUUUUAUUCCCUUGGCAGCAUGACAUGAGGAUCACCCAUGUCUCUU [SSTheo A #10]	interval 1
GGGUACAUCGCGGCCGCCACUCAUGUAAAUGCGUGAGGAUCACCCAUGCCGAUGGAGACAUCGGAGAGGACCGGGUGAUGUACCG	interval 2
UAACAUGAGGAUCACCCAUGUUUAGAUGAACGAGGACCGGUACGGCCGCCACUCGAUAAGUGGCAAGAACGAGGGAUUGUAUGCU [Same State Trp A GF3]	interval 1
AACAUGAGGAUCACCCAUGUGUCCUCGAAACGAGGACCGGUACGGCCGCCACUCGGCGUAUGUUGACGAAAAGUCAGCAUACGCA [Mat - Exclusion - Trytophan A - D11]	interval 3
UAAUAAUUGUGAUUCUCAGGUCCUCGAUAACGAGGACCGGUACGGCCGCCACUCGAACAUGAGGAUCACCCAUGUAUGAGGACCU [M'-T'-T-MS2-T'' - Design 3]	interval 1
GGAAAAUAUAGGGAUACCAGAUAUGGCGUUGACAUGAGGAUCACCCAUGUCUUAGCAGUGAUCCCUUGGCAGCCCACACCAUCCG [theeternabot_sameState_MS2_Theo_B_13]	interval 2
UUAGAUAUGACAGAUACCAGCGUGUUGUAGAACAUGAGGAUCACCCAUGUAGUGAUCGUGCGCCCUUGGCAGCUGGUAUGUUUGG [7.W]	interval 3
ACAUGAGGAUCACCCAUGUGAAGGCACGAUACCAGCUGAUCCCGUGGCCCUUGGCAGCGUCCGGUGUGGUCCGGCGGAUGGGACG [xwxmullin]	interval 1
GGACUAACCAGAAGGAGCGGCACGCAGAAACUGCAAUUUCCUCCACACGAGGAUCACCCGUGUCAGGUAGGUCGCUGGUUAGUCG [ArgBX 29]	interval 1
GACAUUAACUGAAGGAGCGAGGUAGAACGGGAUGAGCAUACAUGAGGAUCACCCAUGUGGCCUCAGGUAGGUCGCAGAUGAGAUU [Exclusion Arginine B GF25]	interval 3
ACCGCAGGUCCUGAUACCAGAGACAUGAGGAUCACCCAUGUCCGAUCGUCCUGCCUCAGGCUCCCUUGGCAGCAGGGCUUGUCCU [Exclusion Theophylline B GF8]	interval 1

The origin of these recorded values is the supplement of paper PMC9170038.
